Data origin, for the record: ChEMBL document CHEMBL6127057

- Test system: Cryptococcus neoformans
- assay-name: Antifungal activity against Cryptococcus neoformans assessed as fungal growth inhibition incubated for 72 hrs
- Type: functional
result-type: MIC80

Exercise: Quick check: MIC80 on Cryptococcus neoformans, item Cc1ccccc1-c1c(O)c2scc(Br)c2[nH]c1=O ?
Solution: > 64 µg/mL

Exercise: For Cryptococcus neoformans, provide MIC80 of O=c1[nH]c2c(Br)csc2c(O)c1-c1cccc(F)c1 please.
Solution: > 64 µg/mL

Exercise: Kindly state the measured MIC80 obtained for Cc1cccc(-c2c(O)c3scc(Br)c3[nH]c2=O)c1 with Cryptococcus neoformans.
Solution: > 64 µg/mL

Exercise: API: value(readout= MIC80, system= Cryptococcus neoformans, query= C[C@@H]1[C@H](O)[C@@H](C)/C=C/C=C/C=C/C=C/C=C/C=C/C=C/[C@H](O[C@@H]2O[C@H](C)[C@@H](O)[C@H](N)[C@@H]2O)C[C@@H]2O[C@](O)(C[C@@H](O)C[C@@H](O)[C@H](O)CC[C@@H](O)C[C@@H](O)CC(=O)O[C@H]1C)C[C@H](O)[C@H]2C(=O)O [AMPHOTERICIN B] )
Solution: 0.5 µg/mL

Exercise: Give Cryptococcus neoformans MIC80 for O=c1[nH]c2c(Br)csc2c(O)c1-c1ccccc1F
Solution: > 64 µg/mL
